Each recorded value in this set is attributed to paper PMC6522510.

Some molecules, each annotated with its measured EC50.
test system: CHRF288-11; assay: Secondary dose-response HTS, Cell Titer Glo; type: cell-based, human; settings: secondary high-throughput screen; CHRF288-11; read-out: average effective concentration, CHRF288-11
Report as a plain number; the unit µM is understood.

{"columns": ["molecule", "value_observed"],
 "data": [
  ["C=C1C(=O)O[C@@H]2C[C@@]3(C)CCCC(=C)[C@@H]3C[C@H]12", 6.7]
]}

Moving on to another molecule below.
The molecule listed as CC1CCCCCC(=O)c2c(O)cc(O)cc2CC(=O)O1 (single isomer, unassigned; (-)) [(-)-CURVULARIN] shows EC50 equal to 4.7
